- protocol summary: gradient 5% acetonitrile 3 min, to 50% in 2 min, to 85% in 15 min, held 3 min, 100 µL/min
- protocol conditions: column: Zorbax Extend-C18 2.1 x 50 mm; eluents: water / acetonitrile, 0.1% formic acid
Returns the class for an entry based on its RP-LC retention time. Class ranges: Low (below 700 s), Medium (700 s to below 800 s), High (800 s or more)

Some solved entries appear below for comparison.
Sort O=C(Nc1cn(-c2ccc(C(=O)N3CCN(c4ccccc4)CC3)cc2)cn1)C1CC1 into one of the categories.
Medium

Sort CC(=O)NC(CC(C)C)C(=O)NC(Cc1ccccc1)C(=O)CCl (centres undefined) into one of the categories.
Medium

Sort CC(=O)N1CCc2cc(S(=O)(=O)C(C)CC(=O)N3CCN(c4cccc(C)c4C)CC3)ccc21 (centres undefined) into one of the categories.
High

Sort CC(Oc1ccccc1F)C(=O)NCCn1nc(-n2cccn2)ccc1=O (centres undefined) into one of the categories.
Low

Sort COc1ccc2c(c1)C(OC(C)C)=C(C(N)=O)S2=O (centres undefined) into one of the categories.
Low

Further cases:
Sort O=C(CCc1csc2nc(C3CC3)cn12)NCc1ccc(OC(F)(F)F)cc1 into one of the categories.
Low

Sort Cc1oc2ccn(Cc3cccc(F)c3)c(=O)c2c1C(=O)NC1CCCC1 into one of the categories.
High

Sort Cc1cc(NC(=O)c2cnc3c(c2)c(=O)n(C)c(=O)n3-c2ccccc2)ccc1F into one of the categories.
High

Sort CNC(=O)N1CCCC(c2cccc(C(=O)NCc3ccc(Br)cc3)c2)C1 (centres undefined) into one of the categories.
High

Sort CCOc1nccnc1N1CCC(N(C)C(=O)Cc2c(C)noc2C)C1 (centres undefined) into one of the categories.
Low

Sort Cn1c(=O)sc2cc(S(=O)(=O)N3CCC(C(=O)Nc4cccc(Cl)c4)CC3)ccc21 into one of the categories.
High

Sort Cc1ccc(S(=O)(=O)N2CCCC(Cn3c(C)nc4cccnc43)C2)cc1F (centres undefined) into one of the categories.
Medium

Sort O=C(CSCc1ccccc1)NCC1(CO)CC1 into one of the categories.
Low

----------
- protocol summary: gradient 5% acetonitrile 3 min, to 50% in 2 min, to 85% in 15 min, held 3 min, 100 µL/min
- protocol conditions: column: Zorbax Extend-C18 2.1 x 50 mm; eluents: water / acetonitrile, 0.1% formic acid
measurement label: RP-LC retention time (s)
Write the value in s as a bare number.

Please report RP-LC retention time for the following compound: Cc1ccc(NC(=O)Cn2c(C)nc3c(sc4nc(-c5ccccc5)ccc43)c2=O)c(Cl)c1
1140

Please report RP-LC retention time for the following compound: CCNc1cc(N2CCCC(CCC(=O)Nc3ccc(OC)cc3)C2)ncn1 (centres undefined)
659

Further cases:
Please report RP-LC retention time for the following compound: Cc1cc2c(N3CCN(CCO)CC3)ncnc2s1
520

Please report RP-LC retention time for the following compound: Cn1nccc1-c1cccc(-c2noc(/C=C/c3ccccc3)n2)c1
1160

Please report RP-LC retention time for the following compound: COc1ccc(S(=O)(=O)N2CCN(c3ccc(Nc4ccccn4)nn3)CC2)cc1C
603

----------
- protocol summary: gradient 5% acetonitrile 3 min, to 50% in 2 min, to 85% in 15 min, held 3 min, 100 µL/min
- protocol conditions: column: Zorbax Extend-C18 2.1 x 50 mm; eluents: water / acetonitrile, 0.1% formic acid
// values below are reported RP-LC retention time
Write the value in s as a bare number.

Please report RP-LC retention time for the following compound: O=C(NCCN1CCOCC1)c1ccc2c(c1)CCCN2S(=O)(=O)c1ccc(Cl)cc1
689

Please report RP-LC retention time for the following compound: COc1ccccc1N1CCN(C(=O)Cn2cnc3onc(C)c3c2=O)CC1
720

Here's the next entry for you.
Please report RP-LC retention time for the following compound: CC(C)OCCCNC(=O)c1ccc2c(c1)NC(=O)C(C(C)C)N2 (stereo not drawn)
688

----------
- protocol summary: gradient 5% acetonitrile 3 min, to 50% in 2 min, to 85% in 15 min, held 3 min, 100 µL/min
- protocol conditions: column: Zorbax Extend-C18 2.1 x 50 mm; eluents: water / acetonitrile, 0.1% formic acid
Returns the class for an entry based on its RP-LC retention time. Class ranges: interval 1 = under 700 s, interval 2 = from 700 s up to 800 s, interval 3 = 800 s and over

Some solved entries appear below for comparison.
Sort O=c1c(=O)n(Cc2nc(-c3ccc4c(c3)OCO4)no2)ccn1Cc1ccc(Cl)cc1 into one of the categories.
interval 3

Sort Cc1nnc(N2CCCC(C(=O)NCCc3ccccc3)C2)c2nn(-c3ccccc3)c(C)c12 (configuration not stated) into one of the categories.
interval 2

Sort CCOc1ccc(NS(=O)(=O)c2cc(C(=O)N3CCN(c4cccc(C)c4)C(C)C3)n[nH]2)cc1 (configuration not stated) into one of the categories.
interval 3

Further cases:
Sort Cc1ccc(Sc2nccnc2N2CCCC(C(=O)NCCCc3ccccc3)C2)cc1 (configuration not stated) into one of the categories.
interval 3

Sort Cc1cccc(NC(=O)N2CCCC2c2nc(-c3cccc(C)c3)no2)c1 (configuration not stated) into one of the categories.
interval 1

Sort O=C(NCCCN1CCCCC1)c1cc2n(n1)CCCN(Cc1ccccc1)C2=O into one of the categories.
interval 1

----------
- protocol summary: gradient 5% acetonitrile 3 min, to 50% in 2 min, to 85% in 15 min, held 3 min, 100 µL/min
- protocol conditions: column: Zorbax Extend-C18 2.1 x 50 mm; eluents: water / acetonitrile, 0.1% formic acid
// values below are reported RP-LC retention time
Kindly format the answer as number then unit.

These recorded examples may help you get a feel for the data.
Please report RP-LC retention time for the following compound: O=C(c1ccsc1)N1CCC(n2c(C3CCCC3)nc3cccnc32)C1 (stereo not drawn)
636 s

Please report RP-LC retention time for the following compound: COCc1noc(C2CN(C(=O)CC(F)(F)F)CC23CCCC3)n1 (stereo not drawn)
798 s

Please report RP-LC retention time for the following compound: Cc1cc2c(cc1S(=O)(=O)N1CCC(C(=O)NCCC3=CCCCC3)CC1)OCC(=O)N2
820 s

Further cases:
Please report RP-LC retention time for the following compound: Cc1noc(C)c1CNC(=O)c1ccc2c(c1)OCO2
683 s

----------
- protocol summary: gradient 5% acetonitrile 3 min, to 50% in 2 min, to 85% in 15 min, held 3 min, 100 µL/min
- protocol conditions: column: Zorbax Extend-C18 2.1 x 50 mm; eluents: water / acetonitrile, 0.1% formic acid
measurement label: RP-LC retention time (s)
Write the value in s as a bare number.

Please report RP-LC retention time for the following compound: COc1cc(NC(=O)N2CCc3cn(C)c4cccc(c34)C2)cc(OC)c1
713

Please report RP-LC retention time for the following compound: CC(=O)Nc1nsc(N2CCC(C(=O)N3CCN(c4cccc(C)c4C)CC3)CC2)n1
806

Here's the next entry for you.
Please report RP-LC retention time for the following compound: O=C(NCc1nc(-c2ccc(-c3csc(-c4ccccc4)n3)cc2)no1)c1ccco1
1090

----------
- protocol summary: gradient 5% acetonitrile 3 min, to 50% in 2 min, to 85% in 15 min, held 3 min, 100 µL/min
- protocol conditions: column: Zorbax Extend-C18 2.1 x 50 mm; eluents: water / acetonitrile, 0.1% formic acid
measurement label: RP-LC retention time (s)
Write the value in s as a bare number.

These recorded examples may help you get a feel for the data.
Please report RP-LC retention time for the following compound: Cc1ccc(Nc2nc(C)cc(N3CCN(C(=O)Nc4cccc(C)c4)CC3)n2)cc1
717

Please report RP-LC retention time for the following compound: COC1CCC12CCN(C(=O)c1conc1C)CC2 (stereo not given)
679

Please report RP-LC retention time for the following compound: Cc1[nH]c(C(=O)N2CCC(CC(=O)N3CCOCC3)CC2)c(C)c1C(=O)OC(C)C
702

Please report RP-LC retention time for the following compound: CCCc1nc(-c2c(C)cc(C)nc2NC(=O)c2ccc(F)cc2F)no1
895

Further cases:
Please report RP-LC retention time for the following compound: CC1CCN(C(=O)C2=CN(c3cccc(F)c3)c3ccccc3S2(=O)=O)CC1
908

----------
- protocol summary: gradient 5% acetonitrile 3 min, to 50% in 2 min, to 85% in 15 min, held 3 min, 100 µL/min
- protocol conditions: column: Zorbax Extend-C18 2.1 x 50 mm; eluents: water / acetonitrile, 0.1% formic acid
Lab note: compare RP-LC retention time with 800 s, writing rule met if less and rule not met if equal or more.

Some solved entries appear below for comparison.
Hello, is RP-LC retention time of the following compound strictly smaller than 800 s? Cc1ccn2c(NC(=O)c3ccc(Br)cc3)c(-c3ccccc3)nc2c1
rule met

Hello, is RP-LC retention time of the following compound strictly smaller than 800 s? COc1ccc(OC)c(S(=O)(=O)NCc2ccc3c(c2)CCN3C(=O)c2ccccc2)c1
rule not met

Hello, is RP-LC retention time of the following compound strictly smaller than 800 s? CCOC(=O)c1cc(S(=O)(=O)N2CCCC2C(=O)Nc2ccc3c(c2)OCCO3)cn1C (stereo not given)
rule not met

Further cases:
Hello, is RP-LC retention time of the following compound strictly smaller than 800 s? O=C(O)c1cnc(NCc2ccco2)nc1-c1ccccc1
rule met

src = the METLIN SMRT retention time set (Domingo-Almenara et al. 2019)
